test system: Trypanosoma brucei brucei; experiment: Antitrypanosomal activity against bloodstream form of Trypanosoma brucei brucei s427 after 48 hrs by alamar blue assay; format: functional, organism-based; details: s427, 48 h
Exercise: state measured IC50 for each of the compounds provided.

input: In one line, give reported IC50 of the entry N=C(N)Nc1cccc(CN2C(=O)[C@H](Cc3ccccc3)N=C(C3CCCCC3)c3ccccc32)c1 .
output: 330 nM

input: Tell us which IC50 value is on record for N=C(N)Nc1ccc(CN2C(=O)[C@H](Cc3ccccc3)N=C(c3ccccc3)c3ccccc32)cc1
output: 490 nM

input: Provide only the value of recorded IC50 for O=C1Nc2ccccc2C(c2ccccc2)=N[C@H]1Cc1ccccc1
output: 13800 nM

input: Output measured IC50 for this item: N=C(N)Nc1cccc(CN2C(=O)[C@H](Cc3ccccc3)N=C(c3ccccc3)c3ccccc32)c1
output: 270 nM
